IC50 values for the molecules below.
- Test system: Leukemia L 1210 cells
- PROTOCOL: in vitro clonogenic L1210 assay (inhibition of colony formation in soft agar)
- Format: cell-based
- RECORDED CONDITIONS: Mus musculus, L1210, 72 h; soft agar 0.3%, 3 days continuous exposure, vs non-treated control cells; read-out: ID50 (dose giving 50% inhibition of L1210 colony formation)

Before answering, review these 2 worked examples.
• CCCCCCCCSC[S@+]([O-])C[C@H](CO)NC(=O)/C=C/c1c(C)[nH]c(=O)[nH]c1=O = 100 nM
• CSC[S@+]([O-])C[C@H](CO)NC(=O)/C=C/c1c(C)[nH]c(=O)[nH]c1=O = 400 nM

Lab note: next molecule to report on.
IC50 measured on `CCCCCCCCSC[S@+]([O-])C[C@H](C)NC(=O)/C=C/c1c(C)[nH]c(=O)[nH]c1=O` = 180 nM

---

- Test system: Leukemia L 1210 cells
- PROTOCOL: in vitro clonogenic L1210 assay (inhibition of colony formation in soft agar)
- Format: cell-based
- RECORDED CONDITIONS: Mus musculus, L1210, 72 h, read-out: ID50 (dose giving 50% inhibition of L1210 colony formation)
QUANTITY KIND: IC50 (nM)
Please respond with the number in nM and leave the unit unwritten.

Known IC50 results, listed for orientation:
- CSC[S@+]([O-])C[C@H](C)NC(=O)/C=C/c1c(C)[nH]c(=O)[nH]c1=O [2a]: 100
- Cc1[nH]c(=O)[nH]c(=O)c1/C=C/C(=O)N[C@@H](CO)C[S@@+]([O-])CSCc1ccccc1 [benzyl-sparsomycin]: 110

// CSC[S@@+]([O-])C[C@H](C)NC(=O)/C=C/c1c(C)[nH]c(=O)[nH]c1=O [3a] : IC50 value = 550

---

- SYSTEM TESTED: ribosomes from S. cerevisiae Y166 (peptidyl transferase activity)
- PROTOCOL: fragment reaction, S. cerevisiae ribosomes
- Assay type: biochemical
- RECORDED CONDITIONS: 50% inhibition relative to control; 0° C., 30 min, 33% methanol; read-out: ED50 Fragment reaction S. cerevisiae
Please use t for IC50 under 6 µM and f for everything else, ties included.

- CSC[S@+]([O-])C[C@H](C)NC(=O)/C=C/c1c(C)[nH]c(=O)[nH]c1=O: t
- CCCCCCCCSC[S@+]([O-])C[C@H](CO)NC(=O)/C=C/c1c(C)[nH]c(=O)[nH]c1=O: f
- CSC[S@+]([O-])C[C@H](CO)NC(=O)/C=C/c1c(C)[nH]c(=O)[nH]c1=O: t
- CSC[S@@+]([O-])C[C@H](C)NC(=O)/C=C/c1c(C)[nH]c(=O)[nH]c1=O: f

Moving on to another compound below.
[ask] In the record for `Cc1[nH]c(=O)[nH]c(=O)c1/C=C/C(=O)N[C@@H](CO)C[S@@+]([O-])CSCc1ccccc1` , is IC50 less than 6 µM?
[reply] t

---

The molecules listed here are annotated with their pIC50.
- SYSTEM TESTED: ribosomes from S. cerevisiae Y166 (peptidyl transferase activity)
- PROTOCOL: polyphenylalanine synthesis assay, S. cerevisiae ribosomes
- Type: biochemical
- RECORDED CONDITIONS: concentration giving 50% inhibition relative to control; 30° C., 30 min; read-out: ED50 polyPhe synthesis S. cerevisiae
pIC50 field: float, defined as -log10 of concentration (mol/L).

Solved cases below.
* Cc1[nH]c(=O)[nH]c(=O)c1/C=C/C(=O)N[C@@H](CO)C[S@@+]([O-])CSCc1ccccc1 | 6.22
* CSC[S@@+]([O-])C[C@H](C)NC(=O)/C=C/c1c(C)[nH]c(=O)[nH]c1=O | 3.84

Would you kindly look at the next entry?
pIC50 for `CSC[S@+]([O-])C[C@H](CO)NC(=O)/C=C/c1c(C)[nH]c(=O)[nH]c1=O` is 5.28
